measured.on: CYP3A4 (Homo sapiens, UniProt P08684)
Sequence (P08684 whole entry, canonical isoform): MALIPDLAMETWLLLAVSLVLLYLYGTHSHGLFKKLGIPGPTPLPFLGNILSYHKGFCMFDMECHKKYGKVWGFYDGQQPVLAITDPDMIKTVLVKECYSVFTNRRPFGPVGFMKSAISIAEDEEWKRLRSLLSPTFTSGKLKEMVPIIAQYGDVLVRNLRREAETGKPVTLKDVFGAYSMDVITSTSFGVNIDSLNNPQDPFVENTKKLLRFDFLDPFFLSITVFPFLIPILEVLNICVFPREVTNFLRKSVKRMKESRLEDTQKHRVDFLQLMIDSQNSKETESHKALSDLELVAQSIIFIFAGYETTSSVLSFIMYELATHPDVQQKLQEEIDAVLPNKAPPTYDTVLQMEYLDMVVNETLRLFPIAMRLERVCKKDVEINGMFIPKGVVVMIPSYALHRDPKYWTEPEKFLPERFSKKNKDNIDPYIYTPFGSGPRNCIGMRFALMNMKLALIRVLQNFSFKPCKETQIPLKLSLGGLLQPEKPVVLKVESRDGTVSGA
protocol: Cytochrome P450 inhibition IC50 determination (isoform CYP3A4)
Assay type: in vitro ADME
experimental.parameters: human; CYP3A4, 2.5 μM; read-out: % inhibition with substrate midazolam
observed.property: inhibition at 2.5 µM (%)
A number alone suffices; assume %.

Param item = "N[C@@H](Cc1ccc(O)cc1)C(=O)NCc1ccccc1C(F)(F)F" ; retrieve measured inhibition at 2.5 µM.
65.6

---

measured.on: CYP3A4 (Homo sapiens, UniProt P08684)
protocol: Cytochrome P450 inhibition IC50 determination (isoform CYP3A4)
Type: in vitro ADME
experimental.parameters: human, probe testosterone; CYP3A4, 2.5 μM; read-out: % inhibition with substrate testosterone
observed.property: inhibition at 2.5 µM (%)
Give the number; % is assumed, so skip it.

Reported inhibition at 2.5 µM for N[C@@H](Cc1ccc(O)cc1)C(=O)NCc1ccccc1C(F)(F)F [o-TFB-Tyr] : what is it?
49

---

protocol: Plasma protein binding assay (mouse)
Assay type: in vitro ADME
experimental.parameters: plasma, plasma spiked 1 side, read-out: Mean fraction unbound
observed.property: fraction unbound

Which fraction unbound value belongs to "N[C@@H](Cc1ccc(O)cc1)C(=O)NCc1ccccc1C(F)(F)F" ?
0.287

---

protocol: Plasma protein binding assay (mouse)
Assay type: in vitro ADME
experimental.parameters: plasma, plasma spiked 1 side, read-out: Fraction unbound Replicate 1
observed.property: fraction unbound
Reply with the value as a number alone.

I have this compound here, "N[C@@H](Cc1ccc(O)cc1)C(=O)NCc1ccccc1C(F)(F)F" , and I need its recorded fraction unbound.
0.28

---

System: Caco-2 cells
protocol: Intestinal permeability assay in Caco-2 cells
Assay type: in vitro ADME, human
experimental.parameters: Caco2, A to B
observed.property: Direction A to B Mean Papp (×10⁻⁶ cm/s)
Kindly answer with a numeric value in ×10⁻⁶ cm/s, unit omitted.

Quick one: Direction A to B Mean Papp for "N[C@@H](Cc1ccc(O)cc1)C(=O)NCc1ccccc1C(F)(F)F" ?
22.1

---

protocol: Intestinal permeability assay in Caco-2 cells
Assay type: in vitro ADME, human
experimental.parameters: human, Caco-2; Caco2; read-out: Efflux ratio (Mean Papp B to A/Mean Papp A to B)
observed.property: efflux ratio
The answer should be a number; do not append a unit.

Can you share its efflux ratio? I mean this compound: N[C@@H](Cc1ccc(O)cc1)C(=O)NCc1ccccc1C(F)(F)F [o-TFB-Tyr]
0.862

---

protocol: Plasma protein binding assay (mouse)
Type: in vitro ADME
experimental.parameters: plasma spiked 1 side
observed.property: recovery (%)
Return type: number; implicit unit %.

Find the recorded recovery belonging to "N[C@@H](Cc1ccc(O)cc1)C(=O)NCc1ccccc1C(F)(F)F" and report it.
102

---

protocol: Plasma protein binding assay (mouse)
Assay type: in vitro ADME
experimental.parameters: plasma, plasma spiked 1 side, read-out: Fraction unbound Replicate 3
observed.property: fraction unbound

Sample "N[C@@H](Cc1ccc(O)cc1)C(=O)NCc1ccccc1C(F)(F)F" — what was its fraction unbound?
0.301
